Cited source: paper PMC9740939

experiment: Stability of analytes in rat plasma (QC samples, storage and freeze–thaw); type: in vitro ADME; details: rat plasma, HQC: spiked 640 ng/mL (EG 160 ng/mL), n = 6
Items are presented alongside their recorded Stability Re (%), 4 °C, 48 h.

compound	Stability Re (%), 4 °C, 48 h
COc1cc(O)c2c(c1)C(=O)c1cc(C)cc(OC3OC(CO)C(O)C(O)C3O)c1C2=O [PG, physcion-8-O-β-D-glucoside]	92.41
O=C1c2cccc(O)c2C(=O)c2c(O)cc(CO)cc21	90.21
OCC1OC(Oc2c(O)cc(O)cc2C=Cc2ccc(O)cc2)C(O)C(O)C1O (stereo not shown)	97.86
Cc1cc(O)c2c(c1)C(=O)c1cc(O)cc(O)c1C2=O	85.19

* * *

Items are presented alongside their recorded Stability Re (%), −80 °C, 10 Days.
assay: Stability of analytes in rat plasma (QC samples, storage and freeze–thaw); type: in vitro ADME; conditions: rat plasma, HQC: spiked 640 ng/mL (EG 160 ng/mL), n = 6
metric: Stability Re (%), −80 °C, 10 Days

compound	metric	unit.descriptor	quantitative.readout
O=C1c2cccc(O)c2C(=O)c2c(O)cc(CO)cc21 [AE, aloe-emodin]	Stability Re (%), −80 °C, 10 Days	%	100.1
OCC1OC(Oc2c(O)cc(O)cc2C=Cc2ccc(O)cc2)C(O)C(O)C1O (stereo not shown) [TSG]	Stability Re (%), −80 °C, 10 Days	%	92.72
Cc1cc(O)c2c(c1)C(=O)c1cc(O)cc(O)c1C2=O [EM, emodin]	Stability Re (%), −80 °C, 10 Days	%	111.7
COc1cc(O)c2c(c1)C(=O)c1cc(C)cc(OC3OC(CO)C(O)C(O)C3O)c1C2=O [PG, physcion-8-O-β-D-glucoside]	Stability Re (%), −80 °C, 10 Days	%	96.88

* * *

experiment: Pharmacokinetic study in rats after oral administration of PM extract (HPLC-QQQ-MS of plasma); type: in vivo, Sprague–Dawley (SD) rats; settings: male, Sprague-Dawley; rat plasma, oral PM 18 g/kg, n = 6

compound	unit.descriptor	AUC(0-inf)
OCC1OC(Oc2c(O)cc(O)cc2C=Cc2ccc(O)cc2)C(O)C(O)C1O (centres unmarked)	ng·h/mL	758
COc1cc(O)c2c(c1)C(=O)c1cc(C)cc(OC3OC(CO)C(O)C(O)C3O)c1C2=O [PG, physcion-8-O-β-D-glucoside]	ng·h/mL	205

* * *

assay: Stability of analytes in rat plasma (QC samples, storage and freeze–thaw); assay type: in vitro ADME; details: rat plasma, LQC: spiked 10.0 ng/mL (EG 2.50 ng/mL), n = 6
metric: Stability Re (%), 4 °C, 48 h

molecule	result
OCC1OC(Oc2c(O)cc(O)cc2C=Cc2ccc(O)cc2)C(O)C(O)C1O (stereo not shown)	100.1%
COc1cc(O)c2c(c1)C(=O)c1cc(C)cc(OC3OC(CO)C(O)C(O)C3O)c1C2=O [PG, physcion-8-O-β-D-glucoside]	98.55%
O=C1c2cccc(O)c2C(=O)c2c(O)cc(CO)cc21	94.77%
Cc1cc(O)c2c(c1)C(=O)c1cc(O)cc(O)c1C2=O	86.36%

* * *

assay: Stability of analytes in rat plasma (QC samples, storage and freeze–thaw); format: in vitro ADME; details: rat plasma, MQC: spiked 200 ng/mL (EG 50.0 ng/mL), n = 6
metric: Stability Re (%), 4 °C, 48 h

compound	metric	unit.descriptor	quantitative.readout
O=C1c2cccc(O)c2C(=O)c2c(O)cc(CO)cc21	Stability Re (%), 4 °C, 48 h	%	97.05
Cc1cc(O)c2c(c1)C(=O)c1cc(O)cc(O)c1C2=O	Stability Re (%), 4 °C, 48 h	%	92.05
OCC1OC(Oc2c(O)cc(O)cc2C=Cc2ccc(O)cc2)C(O)C(O)C1O (stereo not shown)	Stability Re (%), 4 °C, 48 h	%	92.13
COc1cc(O)c2c(c1)C(=O)c1cc(C)cc(OC3OC(CO)C(O)C(O)C3O)c1C2=O [PG, physcion-8-O-β-D-glucoside]	Stability Re (%), 4 °C, 48 h	%	90.36

* * *

test: Pharmacokinetic study in rats after oral administration of PM extract (HPLC-QQQ-MS of plasma); format: in vivo, Sprague–Dawley (SD) rats; settings: male, Sprague-Dawley; rat plasma, oral PM 18 g/kg, n = 6; read-out: MRT0–∞
Items are presented alongside their recorded MRT inf.
metric: MRT inf

compound	result
O=C1c2cccc(O)c2C(=O)c2c(O)cc(CO)cc21	8.57 h
COc1cc(O)c2c(c1)C(=O)c1cc(C)cc(OC3OC(CO)C(O)C(O)C3O)c1C2=O [PG, physcion-8-O-β-D-glucoside]	17.6 h
OCC1OC(Oc2c(O)cc(O)cc2C=Cc2ccc(O)cc2)C(O)C(O)C1O (stereo not drawn)	1.23 h
